# Lookup of reported IC50 keyed by entry
biological target: 6-phosphofructo-2-kinase/fructose-2,6-bisphosphatase 3 (Homo sapiens, UniProt Q16875); assay: Inhibition of PFKFB3 in human A549 cells assessed as decrease in lactate secretion after 4 hrs; assay type: cell-based
Sequence (Q16875 whole entry): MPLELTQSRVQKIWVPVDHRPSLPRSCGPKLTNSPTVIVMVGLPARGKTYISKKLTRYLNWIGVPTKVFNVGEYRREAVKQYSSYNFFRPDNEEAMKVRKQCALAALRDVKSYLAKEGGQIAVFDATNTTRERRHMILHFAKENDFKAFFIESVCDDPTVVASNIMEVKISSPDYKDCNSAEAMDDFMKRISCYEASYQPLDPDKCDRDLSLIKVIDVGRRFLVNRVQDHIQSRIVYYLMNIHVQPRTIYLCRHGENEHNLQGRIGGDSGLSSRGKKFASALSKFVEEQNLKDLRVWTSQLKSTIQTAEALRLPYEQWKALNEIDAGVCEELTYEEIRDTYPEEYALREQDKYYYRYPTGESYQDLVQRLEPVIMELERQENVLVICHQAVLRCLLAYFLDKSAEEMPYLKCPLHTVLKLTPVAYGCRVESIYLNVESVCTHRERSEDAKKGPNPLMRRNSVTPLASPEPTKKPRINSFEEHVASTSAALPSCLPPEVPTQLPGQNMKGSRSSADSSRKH
measuredProperty: IC50

> print(dat)
                                smilesentry  valuemeasured
1  CCn1cc(C#N)c2cc(Oc3ccc(NC(=O)CN(C)C)cc3)ccc21        > 30 µM
2  CCn1cc(C#N)c2cc(Oc3ccc(NC(=O)[C@@H]4CCC(=O)N4)cc3)ccc21        > 30 µM
3  CCn1cc(C#N)c2cc(Oc3ccc(NC(=O)[C@@H]4CCN4)cc3)ccc21        19.6 µM
